Each item that follows carries a reported IC50.
Target: α4β1 integrin (Homo sapiens (Human), UniProt P05556+P13612)
Sequence (P13612 34-1032): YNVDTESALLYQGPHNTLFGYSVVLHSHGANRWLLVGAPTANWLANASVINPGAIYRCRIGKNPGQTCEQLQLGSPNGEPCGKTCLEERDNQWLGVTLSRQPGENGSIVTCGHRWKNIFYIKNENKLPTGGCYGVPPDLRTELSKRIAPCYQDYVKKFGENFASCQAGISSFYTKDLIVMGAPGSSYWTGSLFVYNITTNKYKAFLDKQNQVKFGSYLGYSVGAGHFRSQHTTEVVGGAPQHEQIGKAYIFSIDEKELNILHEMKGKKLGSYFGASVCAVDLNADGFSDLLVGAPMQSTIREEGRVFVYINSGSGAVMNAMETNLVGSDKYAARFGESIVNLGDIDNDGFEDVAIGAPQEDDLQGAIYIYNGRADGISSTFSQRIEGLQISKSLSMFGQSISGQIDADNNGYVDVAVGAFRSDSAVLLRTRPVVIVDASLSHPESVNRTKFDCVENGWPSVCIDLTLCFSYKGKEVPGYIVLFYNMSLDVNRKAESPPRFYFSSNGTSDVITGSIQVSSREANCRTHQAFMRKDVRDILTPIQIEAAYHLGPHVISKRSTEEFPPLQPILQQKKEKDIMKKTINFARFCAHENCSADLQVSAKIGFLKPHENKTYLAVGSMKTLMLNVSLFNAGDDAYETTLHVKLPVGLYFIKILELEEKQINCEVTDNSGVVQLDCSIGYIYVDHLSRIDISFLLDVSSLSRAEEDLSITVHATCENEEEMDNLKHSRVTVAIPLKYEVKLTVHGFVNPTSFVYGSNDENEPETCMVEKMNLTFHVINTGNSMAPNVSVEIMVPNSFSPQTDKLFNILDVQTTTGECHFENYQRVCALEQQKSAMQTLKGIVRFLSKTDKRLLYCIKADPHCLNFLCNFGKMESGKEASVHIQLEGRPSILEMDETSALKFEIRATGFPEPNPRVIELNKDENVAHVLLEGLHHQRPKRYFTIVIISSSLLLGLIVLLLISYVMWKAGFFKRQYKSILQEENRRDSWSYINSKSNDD
Sequence (P05556 21-798): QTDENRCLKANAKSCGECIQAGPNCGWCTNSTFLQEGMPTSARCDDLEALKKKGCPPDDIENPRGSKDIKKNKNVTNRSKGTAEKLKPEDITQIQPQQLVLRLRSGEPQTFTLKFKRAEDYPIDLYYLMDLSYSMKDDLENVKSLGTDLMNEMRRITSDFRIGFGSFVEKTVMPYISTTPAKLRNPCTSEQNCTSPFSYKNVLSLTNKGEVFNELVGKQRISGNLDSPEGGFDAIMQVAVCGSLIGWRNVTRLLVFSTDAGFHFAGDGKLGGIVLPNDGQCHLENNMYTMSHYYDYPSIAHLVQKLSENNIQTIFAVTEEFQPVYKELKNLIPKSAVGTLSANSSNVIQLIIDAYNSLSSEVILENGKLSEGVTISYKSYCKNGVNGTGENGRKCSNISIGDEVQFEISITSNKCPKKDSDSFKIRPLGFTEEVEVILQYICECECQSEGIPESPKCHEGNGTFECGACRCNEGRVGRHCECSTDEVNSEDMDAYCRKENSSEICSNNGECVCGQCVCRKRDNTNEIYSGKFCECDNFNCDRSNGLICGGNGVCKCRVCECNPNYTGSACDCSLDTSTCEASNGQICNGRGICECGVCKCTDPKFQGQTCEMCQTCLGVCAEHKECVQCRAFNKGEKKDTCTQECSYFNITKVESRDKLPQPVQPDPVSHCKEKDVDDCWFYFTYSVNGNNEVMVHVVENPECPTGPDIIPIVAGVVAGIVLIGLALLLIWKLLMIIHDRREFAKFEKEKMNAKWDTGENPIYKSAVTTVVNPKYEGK
Assay: Integrin Adhesion Assay: Protocol 5 (VCAM-coated plate, RPMI-8866 cells with stable LOF mutation of the ITGB7 gene)
Type: cell-based
Conditions: RPMI-8866 cells with stable LOF mutation of the ITGB7 gene; read-out: Mean IC50 α4β1 KO^b
Description: Integrin Adhesion Assay Using Genetically Modified Cells Generating Stable Cell Lines with ITGB1 or ITGB7 Knockout (Protocol 4 and Protocol 5) […] To generate an individual clones of cells deficient in either ITGB7 or ITGB1 by limiting dilution assay, the transfected cells were resuspended at 5 cells/mL and seeded in 384 well plates. Outgrowth of clones was monitored using a microscope, and 24 clones were transferred for expansion. […]

Answered examples (5):
Item Cn1c(=O)c(-c2cccc3c(C[C@H](NC(=O)C4(C(F)(F)F)CCN(C5COCC5C(F)(F)F)CC4)C(=O)O)cccc23)c(C(F)(F)F)c2ccccc21 (stereo partly drawn) has what recorded IC50? > 1000 nM

State the recorded IC50 for this entry: COc1ccc(CN2CCCC(F)C2)c(C(F)(F)F)c1-c1cccc2c(C[C@H](NC(=O)c3c(C)cccc3F)C(=O)O)cccc12 (stereo partly drawn) > 1000 nM

Which IC50 value belongs to CC1(C(=O)N[C@@H](Cc2cccc3c(-c4ncc(CN5CCCCC5)c5ccccc45)cccc23)C(=O)O)CC2CCC(C1)N2CC(F)F (stereo partly drawn) ? > 1000 nM

I would be grateful if you could share the reported IC50 for CC1(C)CCN(Cc2cccc3c(-c4cccc5c(C[C@H](NC(=O)C6(C(F)(F)F)CCN(CC(F)(F)F)CC6)C(=O)O)cccc45)nccc23)CC1 . > 1000 nM

Name the reported IC50 value associated with the molecule CN(C)Cc1ccc2c(C(F)(F)F)c(-c3cccc4c(C[C@H](NC(=O)C5(C(F)(F)F)CCN(CC(F)(F)F)CC5)C(=O)O)cccc34)c(=O)n(C)c2c1 100 to 1000 nM

---
Give its IC50 value. Item: COc1ccc(CN2CCCCC2C)c(OC)c1-c1cccc2c(C[C@H](NC(=O)c3c(C)cccc3F)C(=O)O)cccc12 (stereo partly drawn) 100 to 1000 nM
